assay: Pharmacokinetics studies in rats; format: in vivo; settings: male, SD, rat, plasma, po, 50 mg/kg

{"columns": ["MOLECULE", "READOUT_UNIT", "AUC(0-t)"],
 "data": [
  ["C[C@H]1[C@H](OC(=O)CCC(=O)O)O[C@@H]2O[C@@]3(C)CC[C@H]4[C@H](C)CC[C@@H]1[C@@]24OO3 [ART, Artesunate]", "ng·h/mL", 2540]
]}

* * *

assay: Pharmacokinetics studies in rats; format: in vivo; conditions: male, SD, rat, plasma, po, 50 mg/kg

{"columns": ["MOLECULE", "AUC(0-inf) / ng·h/mL"],
 "data": [
  ["C[C@H]1[C@H](OC(=O)CCC(=O)O)O[C@@H]2O[C@@]3(C)CC[C@H]4[C@H](C)CC[C@@H]1[C@@]24OO3 [ART, Artesunate]", 2540]
]}

* * *

assay: Pharmacokinetics studies in rats; assay type: in vivo; conditions: male, SD, rat, plasma, po, 50 mg/kg

{"columns": ["MOLECULE", "MRT (min)"],
 "data": [
  ["C[C@H]1[C@H](OC(=O)CCC(=O)O)O[C@@H]2O[C@@]3(C)CC[C@H]4[C@H](C)CC[C@@H]1[C@@]24OO3 [ART, Artesunate]", 30]
]}

// data source = paper PMC10580252
